- EXPERIMENT_DESCRIPTION: AUC (0 to infinity) in Sprague-Dawley rat at 5 mg/kg, po
- Assay type: ADME, organism-based
- Design: dose 5 mg/kg, time infinity, route oral
- EXPERIMENTAL_CONTEXT: in vivo
METRIC: AUC(0-inf) (ng·h/mL)
Numbers only, in ng·h/mL.

**Q:** Hello, please tell me recorded AUC(0-inf) for this one: CC(C)c1nn(C)cc1-c1nc2c(N3CCN(Cc4cccnc4)CC3)c(Br)cnc2[nH]1
**A:** 90

---

- EXPERIMENT_DESCRIPTION: Volume of distribution at steady state in Sprague-Dawley rat at 5 mg/kg, iv
- Format: ADME, organism-based
- EXPERIMENTAL_CONTEXT: in vivo, read-out: Vdss
METRIC: Vd (L/kg)
Numbers only, in L/kg.

**Q:** Tell me its Vd given CC(C)c1nn(C)cc1-c1nc2c(N3CCN(Cc4cccnc4)CC3)c(Br)cnc2[nH]1 as the entry.
**A:** 2.76

---

- MEASURED_TARGET: Non-receptor tyrosine-protein kinase TYK2 (Homo sapiens, UniProt P29597)
- Sequence (P29597 whole entry): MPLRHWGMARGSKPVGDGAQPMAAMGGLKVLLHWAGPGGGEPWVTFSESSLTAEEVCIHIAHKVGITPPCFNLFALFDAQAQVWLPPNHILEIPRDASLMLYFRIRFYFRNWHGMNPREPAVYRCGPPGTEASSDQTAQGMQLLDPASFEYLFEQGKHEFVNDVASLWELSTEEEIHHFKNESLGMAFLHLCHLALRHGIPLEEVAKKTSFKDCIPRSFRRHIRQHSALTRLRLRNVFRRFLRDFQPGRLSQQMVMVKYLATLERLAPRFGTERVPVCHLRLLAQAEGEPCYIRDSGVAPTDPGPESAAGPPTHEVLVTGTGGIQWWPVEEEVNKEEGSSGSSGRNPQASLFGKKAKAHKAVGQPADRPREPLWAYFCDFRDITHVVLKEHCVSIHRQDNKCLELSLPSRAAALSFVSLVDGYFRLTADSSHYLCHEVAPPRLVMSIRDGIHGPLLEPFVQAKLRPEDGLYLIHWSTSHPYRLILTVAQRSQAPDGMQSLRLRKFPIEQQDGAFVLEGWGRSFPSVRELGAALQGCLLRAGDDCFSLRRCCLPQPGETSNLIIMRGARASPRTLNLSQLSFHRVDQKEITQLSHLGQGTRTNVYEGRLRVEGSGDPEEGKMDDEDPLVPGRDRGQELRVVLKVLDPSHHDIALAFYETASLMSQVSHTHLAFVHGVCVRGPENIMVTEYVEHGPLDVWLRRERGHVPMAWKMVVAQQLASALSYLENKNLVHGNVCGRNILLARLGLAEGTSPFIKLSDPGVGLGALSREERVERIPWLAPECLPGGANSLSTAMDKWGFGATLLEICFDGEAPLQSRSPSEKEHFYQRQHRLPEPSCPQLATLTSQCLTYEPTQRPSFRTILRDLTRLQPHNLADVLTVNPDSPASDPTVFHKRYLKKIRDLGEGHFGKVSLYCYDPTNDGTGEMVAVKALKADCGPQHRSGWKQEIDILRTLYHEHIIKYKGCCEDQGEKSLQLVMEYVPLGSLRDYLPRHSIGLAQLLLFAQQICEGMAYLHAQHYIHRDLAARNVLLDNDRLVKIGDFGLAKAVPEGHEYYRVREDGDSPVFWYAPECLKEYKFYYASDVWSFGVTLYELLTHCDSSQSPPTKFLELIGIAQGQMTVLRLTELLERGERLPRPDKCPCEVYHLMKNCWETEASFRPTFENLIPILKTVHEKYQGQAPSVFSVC
METRIC: IC50 (nM)
One number for each entry, in nM.

**Q:** Give IC50 for CC(C)c1nn(C)cc1-c1nc2c(N3CCN(Cc4cccnc4)CC3)c(Br)cnc2[nH]1
**A:** 10

---

- EXPERIMENT_DESCRIPTION: AUC (0 to t) in Sprague-Dawley rat at 5 mg/kg, iv
- Assay type: ADME, organism-based
- EXPERIMENTAL_CONTEXT: in vivo
METRIC: AUC(0-t) (ng·h/mL)
Answers are plain numbers, in ng·h/mL.

**Q:** Please report the measured AUC(0-t) for CC(C)c1nn(C)cc1-c1nc2c(N3CCN(Cc4cccnc4)CC3)c(Br)cnc2[nH]1
**A:** 1420
